The reported measurements were obtained from patent US9771369B2.

# system.name: c-Kit kinase (Homo sapiens (Human))
# Sequence (P10721 26-976): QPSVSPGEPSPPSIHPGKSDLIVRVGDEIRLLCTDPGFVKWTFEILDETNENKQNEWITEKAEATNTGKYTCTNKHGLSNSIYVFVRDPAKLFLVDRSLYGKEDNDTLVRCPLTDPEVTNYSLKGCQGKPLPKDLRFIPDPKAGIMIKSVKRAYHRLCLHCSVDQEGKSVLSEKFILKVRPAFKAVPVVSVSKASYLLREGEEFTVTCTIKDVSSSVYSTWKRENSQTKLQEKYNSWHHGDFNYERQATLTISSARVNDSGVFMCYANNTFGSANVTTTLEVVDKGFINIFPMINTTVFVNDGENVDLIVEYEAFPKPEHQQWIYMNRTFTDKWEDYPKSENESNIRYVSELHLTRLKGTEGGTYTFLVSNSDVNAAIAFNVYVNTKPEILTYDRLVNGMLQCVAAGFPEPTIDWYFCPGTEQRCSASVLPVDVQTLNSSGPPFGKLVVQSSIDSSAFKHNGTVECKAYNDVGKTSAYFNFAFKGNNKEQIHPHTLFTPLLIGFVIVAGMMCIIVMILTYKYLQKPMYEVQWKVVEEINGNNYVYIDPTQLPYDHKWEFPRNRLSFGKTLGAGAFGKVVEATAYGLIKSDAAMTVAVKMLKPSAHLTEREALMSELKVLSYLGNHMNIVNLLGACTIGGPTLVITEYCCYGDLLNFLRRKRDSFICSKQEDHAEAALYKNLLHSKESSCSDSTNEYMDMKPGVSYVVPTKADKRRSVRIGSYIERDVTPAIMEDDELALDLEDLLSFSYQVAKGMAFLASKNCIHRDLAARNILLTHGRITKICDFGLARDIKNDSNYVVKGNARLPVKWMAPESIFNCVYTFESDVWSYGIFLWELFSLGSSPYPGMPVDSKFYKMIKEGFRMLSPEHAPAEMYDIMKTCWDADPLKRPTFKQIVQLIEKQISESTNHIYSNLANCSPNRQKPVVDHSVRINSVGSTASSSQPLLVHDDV
# procedure.summary: c-Kit biochemical assay (AlphaScreen kinase activity)
readout.type: IC50

1. COc1cc(-c2cc3c(N4CCC(c5nc(C)c(-c6ccc(OC)c(C)c6)[nH]5)CC4)ncnc3[nH]2)ccn1 : 0.0001 to 1 µM
2. COc1ccc(-c2[nH]c(C3(C)CCN(c4ncnc5[nH]c(-c6ccc(C#N)cc6)cc45)CC3)nc2C)cc1 : 0.0001 to 1 µM
3. COc1cccc(-c2[nH]c(C3(C)CCN(c4ncnc5[nH]c(-c6cnn(C(F)F)c6)cc45)CC3)nc2C)c1 : 0.0001 to 1 µM
4. Cc1cc2c(N3CCC(c4nc(C)c(-c5ccccc5)[nH]4)CC3)ncnc2[nH]1 : 10 to 300 µM
5. Cc1nc(C2CCN(c3ncnc4[nH]c(-c5cnn(C(F)F)c5)cc34)CC2)[nH]c1-c1ccc(F)cc1 : 0.0001 to 1 µM
6. COc1ccc(-c2[nH]c(C3CCN(c4ncnc5[nH]c(-c6ccc(F)cc6)cc45)CC3)nc2C)cc1C : 0.0001 to 1 µM
7. Cc1nc(C2CCN(c3ncnc4[nH]c(-c5ccc(C#N)cc5)cc34)CC2)[nH]c1-c1ccc(OC(F)F)cc1 : 1 to 10 µM
8. Cc1nc(C2(C)CCN(c3ncnc4[nH]c(-c5ccc(N6CCOCC6)nc5)cc34)CC2)[nH]c1-c1cccc(OC(F)F)c1 : 0.0001 to 1 µM
9. COc1cccc(-c2[nH]c(C3(C)CCN(c4ncnc5[nH]c(-c6ccc(OC)nc6)cc45)CC3)nc2C)c1 : 0.0001 to 1 µM
10. COc1ccc(-c2[nH]c(C3(C)CCN(c4ncnc5[nH]c(-c6cnn(C(F)F)c6)cc45)CC3)nc2C)cc1 : 0.0001 to 1 µM
11. N#Cc1ccc(-c2cc3c(N4CCC(c5nc(C6CC6)c(-c6ccccc6)[nH]5)CC4)ncnc3[nH]2)cc1 : 0.0001 to 1 µM
12. CCOc1ccc(-c2[nH]c(C3CCN(c4ncnc5[nH]c(-c6ccc(F)cc6)cc45)CC3)nc2C)cc1C : 0.0001 to 1 µM
13. COc1ccc(-c2[nH]c(C3CCN(c4ncnc5[nH]c(-c6ccc(C#N)cc6)cc45)CC3)nc2C)cc1OC : 1 to 10 µM
14. COc1cccc(-c2[nH]c(C3CCN(c4ncnc5[nH]c(C)cc45)CC3)nc2C)c1 : 1 to 10 µM
15. COc1ccc(-c2[nH]c(C3(C)CCN(c4ncnc5[nH]c(-c6cnn(C(F)F)c6)cc45)CC3)nc2C)cc1F : 0.0001 to 1 µM
